target: human DGKζ (Homo sapiens, UniProt Q13574); construct: TVMV protease cleavage site (C); Hexa-His (C); made in house; host or cells: Sf9 insect cells (baculovirus, Bac-to-Bac); assay: DGKζ LIPGLO assay (extruded liposome substrate), in vitro DGK inhibition; assay type: biochemical; details: DGKζ liposome (LIPGLO) assay; read-out: DGKz LIPGLO IC50
Sequence (Q13574 with tags, fused parts or gaps isoform Q13574-4): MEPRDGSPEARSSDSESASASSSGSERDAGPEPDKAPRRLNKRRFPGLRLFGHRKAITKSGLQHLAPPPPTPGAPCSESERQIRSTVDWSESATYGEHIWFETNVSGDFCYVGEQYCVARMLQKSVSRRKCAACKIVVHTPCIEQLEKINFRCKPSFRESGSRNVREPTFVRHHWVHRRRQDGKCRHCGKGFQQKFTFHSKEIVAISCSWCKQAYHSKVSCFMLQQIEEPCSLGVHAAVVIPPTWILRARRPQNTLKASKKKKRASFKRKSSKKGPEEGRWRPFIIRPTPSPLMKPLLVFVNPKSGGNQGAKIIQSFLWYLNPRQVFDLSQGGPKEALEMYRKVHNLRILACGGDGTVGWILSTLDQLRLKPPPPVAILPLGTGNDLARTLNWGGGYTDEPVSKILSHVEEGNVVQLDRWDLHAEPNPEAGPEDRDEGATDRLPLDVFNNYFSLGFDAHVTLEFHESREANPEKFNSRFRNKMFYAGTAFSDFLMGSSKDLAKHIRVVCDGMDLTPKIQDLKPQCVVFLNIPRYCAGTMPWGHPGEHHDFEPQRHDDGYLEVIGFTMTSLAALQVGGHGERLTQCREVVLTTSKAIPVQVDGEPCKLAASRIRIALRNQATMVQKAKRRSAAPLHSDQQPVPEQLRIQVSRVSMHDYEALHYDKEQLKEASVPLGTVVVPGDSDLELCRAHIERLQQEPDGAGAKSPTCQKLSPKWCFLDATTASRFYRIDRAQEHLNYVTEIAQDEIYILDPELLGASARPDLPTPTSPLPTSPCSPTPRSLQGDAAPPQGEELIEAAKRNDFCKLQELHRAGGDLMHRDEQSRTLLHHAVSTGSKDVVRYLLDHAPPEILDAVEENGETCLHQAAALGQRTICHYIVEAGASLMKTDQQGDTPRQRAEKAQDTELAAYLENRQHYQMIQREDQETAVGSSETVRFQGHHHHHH
pIC50: −log10 of the molar value.
Experimental Endpoint: pIC50

a. C[C@@H]1CN(c2cc(=O)n(C)c3ccc(C#N)nc23)[C@@H](C)CN1C(c1ccc(Br)cc1)c1nc(C2CC2)no1 (stereo partly drawn) [Example 760]
b. C[C@@H]1CN(c2c(C#N)c(=O)n(C)c3ccc(C#N)nc23)CCN1C(c1ccc(F)cc1)c1cccc2c1OC(F)(F)O2 (single isomer, unassigned) [Example 940]
Lab notebook, comparison: a versus b , higher pIC50 goes to which? Answer by quoting the chosen item's label.
a
(a: 7.66, b: 5.14)

Values compiled from patent US10669272B2.
